Hey, just so you know, these numbers are from PubChem BioAssay (NCI).

Test system: MCF7 breast
assay.notes: NCI tumour cell line growth inhibition, 48 h
List of TGI values.
Report only the number, with the unit µM understood.

Previously resolved entries follow.
C/C(=C\c1csc(C)n1)[C@@H]1C[C@@H]2O[C@]2(C)CCC[C@H](C)[C@H](O)[C@@H](C)C(=O)C(C)(C)[C@@H](O)CC(=O)N1 ... 0.00037
O=C(O)CSc1cc(NS(=O)(=O)c2ccc(Br)cc2)c2ccccc2c1O ... 19.8

Endpoint output: TGI of `O=C(/C=C/c1ccccc1)CCN1CCCCC1` . Value? 89.9

// query: CC1(c2ccc(Cl)cc2)C=C(c2ccc(Cl)cc2)C(C#N)=C(C(C#N)C#N)N1 (stereo not given) 37.3

====

System: SF-539 CNS
assay.notes: NCI tumour cell line growth inhibition, 48 h
readout.type: TGI

Endpoint output: TGI of Cc1ccc2c(c1C)CC1(Cc3ccc(C)c(C)c3C1=O)C2=O (centres undefined) . Value? > 100 µM

// query: COC(=O)C1=C(O)C(C(=O)OC)[C@@]2(O)[C@@H](C(=O)OC)[C@H](C)C[C@@H]1[C@@H]2C(=O)OC (some centres undefined) 34.1 µM

// query: N#CC1=C(S)N(C2OC(CO)C(O)C(O)C2O)C(c2ccccc2)=CC1c1ccco1 (centres undefined) > 100 µM

// query: `CC(=O)O[C@H]1C[C@@H]2[C@@]3(C)CC[C@H]4C[C@@]4(C)[C@@H]3CC[C@@]2(C)C2=CCC3=C(COC3=O)[C@]21C` 32.5 µM

====

List of TGI values.
Tested on: EKVX NSCLC
assay.notes: NCI tumour cell line growth inhibition, 48 h

Previously resolved entries follow.
c1ccc(C(NC2=NCCO2)C2CC2)cc1 (stereo not given) ... > 100 µM
CC(C)(C)c1ccc(OCCOCCOc2ccc(C(C)(C)C)cc2S(N)(=O)=O)c(S(N)(=O)=O)c1 ... > 100 µM
CN1S(=O)(=O)N(C)P12(N=P(CP(=NP13(N(C)S(=O)(=O)N1C)N(C)S(=O)(=O)N3C)(c1ccccc1)c1ccccc1)(c1ccccc1)c1ccccc1)N(C)S(=O)(=O)N2C ... > 100 µM
NC(CCC(=O)O)C(=O)NC(Cc1ccc(N(CCCl)CCCl)cc1)C(=O)O (stereo not given) ... > 100 µM
N#C[Se]CCN1C(=O)c2ccccc2C1=O ... 10.3 µM
CCCCC(C(=O)C(=O)Nc1ccccc1CC)C(=O)C(C)C (stereo not given) ... > 100 µM

We next turn to a different compound, shown below.
Fill in the recorded TGI for this compound, with EKVX NSCLC as test system: O=S(=O)(Nc1ccccc1)c1ccc(C2CC3(Cl)C(Cl)=C(Cl)C2(Cl)C3(Cl)Cl)cc1 (stereo not given) 8.37 µM

====

System: M14 melanoma
assay.notes: NCI tumour cell line growth inhibition, 48 h
The threshold is inclusive: TGI of exactly 6 µM counts as fulfilled; values below receive not fulfilled.

Previously resolved entries follow.
CC1(C)CC2=NO[Se]3=C2C(=NO3)C1 ... fulfilled
C/C(=C\c1csc(C)n1)[C@@H]1C[C@@H]2O[C@]2(C)CCC[C@H](C)[C@H](O)[C@@H](C)C(=O)C(C)(C)[C@@H](O)CC(=O)N1 ... not fulfilled
S=c1[nH]nc(Cn2c3ccc(Br)cc3c3nc4ccccc4nc32)o1 ... fulfilled
NC1=C(c2nc(-c3ccccc3)cs2)C(c2ccco2)c2c(c3ccccc3oc2=O)O1 (centres undefined) ... fulfilled
COc1cc2c3c(n(CCCN)c(=O)c2cc1OC)-c1ccc(N)cc1C3=O ... fulfilled

Quick check, TGI >= 6 µM? `COc1cc(NC(=O)COc2ccccc2)c(C(N)=O)cc1OC` fulfilled

// query: COC(=O)C1CC2CC1C1C2SC(F)(F)C1(F)F (centres undefined) fulfilled

// query: `N#C[Se]CCN1C(=O)c2ccccc2C1=O` not fulfilled

// query: `CCc1nc(N)nc(N)c1-c1ccc(N2CCOCC2)c(N=[N+]=[N-])c1` fulfilled

// query: COC(=O)C1=C(OC)C(=P2(c3ccccc3)CC(c3ccccc3)=C2c2ccccc2)C(C(=O)OC)=C1C(=O)OC (centres undefined) fulfilled

// query: `Cn1cc(-c2ccc3c(c2)ncn3-c2cc(NS(=O)(=O)C3CC3)cc(-c3ccc(F)cc3F)c2)cn1` fulfilled
